- Species: Rattus norvegicus
- MEASUREMENT_PROTOCOL: Open TG-GATES - Regimen: Single
- Format: toxicity, organism-based, Sprague-Dawley
- Parameters: regimen Single, gender Male, age 6 weeks
- CONDITION_DESCRIPTION: in vivo, po, 0 mg/kg, 6 h, tissue Kidney, route gavage, dose level Control
ENDPOINT: KIDNEY_L
Phrase the answer as number then unit, nothing more needed.

Examples with answers:
CCC1(c2ccccc2)C(=O)NC(=O)NC1=O [PHENOBARBITAL]    1 g
CC1=C(CC(=O)O)c2cc(F)ccc2/C1=C\c1ccc([S+](C)[O-])cc1 (stereo not given)    0.8 g

In the following, a different compound is considered.
The measured KIDNEY_L associated with O=NN(CCCl)C(=O)NC1CCCCC1 [LOMUSTINE] reads 1 g

Hey, just so you know, these numbers are from ChEMBL document CHEMBL3885861.
